- System: phosphorylation of Akt at Serine 473 in U87 MG cells
- assayProtocol: cells
- setupConditions: Homo sapiens, U-87 MG, 2 h, read-out: U87Cell IC50, pAkt (Ser 473), U87 MG cells, two hours with compound
pIC50: −log10 of the molar value.
property: pIC50

Sample records with pIC50:
COc1ncc(Nc2ncc([C@@H](C)N3CCN(S(C)(=O)=O)C[C@@H]3C)cc2-c2nc(C)nc3[nH]cnc23)cc1F | 8.22
COc1ncc(Nc2ncc([C@@H](C)N3CCN(S(C)(=O)=O)C[C@H]3C)cc2-c2nc(C)nc(N)n2)cc1F | 7.92
COc1ncc(Nc2ncc([C@H](C)N3CCOCC3)cc2-c2cc(N)nc(C)n2)cc1F | 7.74

[P] COc1ccc(Nc2ncc(CNC(C)C)cc2-c2nc(C)nc3[nH]cnc23)cn1
[Q] COc1ccc(Nc2ncc([C@@H](O)C(C)(C)C)cc2-c2nc(C)nc3c2ncn3C2CCCCO2)cn1 (stereo partly drawn)
Enquiry: Please indicate which has the smaller reported pIC50: P , or Q . Give the chosen item's label as your response.
Return: P
(P: 6.36, Q: 6.83)

[A] COc1ccc(Nc2ncc([C@H](O)C(C)(C)C)cc2-c2nc(C)nc3c2ncn3C2CCCCO2)cn1 (stereo partly drawn)
[B] COc1ncc(Nc2ncc([C@@H](C)N3CCN(S(C)(=O)=O)CC3)cc2-c2cc(N)nc(C)n2)cc1F
Enquiry: Hi there! Just curious which has the higher pIC50 between A and B . Give the chosen item's label as your response.
Return: B
(B: 9.00, A: 6.56)

[a] CC(=O)Nc1ccc(Nc2ncc(Cl)cc2-c2nc(C)nc(N)n2)cn1
[b] COc1ccc(Nc2ncc(N3CC[C@H](O)C3)cc2-c2nc(C)nc3[nH]cnc23)cn1
[c] Cc1nc(N)nc(-c2cccnc2Nc2ccc(NC(=O)Nc3cccc(F)c3)nc2)n1
[d] Cc1nc(N)nc(-c2cc([C@H](C)N3CCOCC3)cnc2Nc2cnc(Cl)c(NS(=O)(=O)N(C)C)c2)n1
[e] CC(=O)Nc1ccc(Nc2ncc(CN3CCN(S(C)(=O)=O)CC3)cc2-c2nc(C)nc(N)n2)cc1
Enquiry: Falling order of pIC50, please. In your reply, arrange the labels in the requested order.
Return: d, a, b, e, c
(d: 8.15, a: 7.00, b: 6.42, e: 6.13, c: 5.67)
